Assay: Drug repurposing screens with cells derived from glioblastoma tumor samples (AID 1345199); note: % is set by controls: 0 for no effect and ±100 for the full control effect; nearly all actives have a fitted effect of over 40% in size
Settings: GBM patient neurospheres viability, ATP luminescence, 48 h; at 45.9 µM (top of the series); tumour line D
Results filed as inconclusive are left out. Activity calls are given as the source filed them. Calls come from the whole dose curve; as a rule, active = well fitted inhibition curve with a large enough effect; inconclusive = small, poorly fitted or top-dose-only effect; inactive = flat fitted curve, though single readings scatter. Where a SMILES comes first, the peptide text is derived from it. Bridges are numbered along the chain shown (N, C = ends). [ ]: non-standard residue; d: D form. The star is where a group is joined. ξ: configuration not given here. d(aThr) = C[C@@H](O)[C@@H](N)C(=O)O; ξThr(3R) = C[C@@H](O)C(N)C(=O)O; X3 = CC[C@@H](C)CCCCC(=O)*; dDab = NCC[C@@H](N)C(=O)O
reported.endpoint: activity, negative = cell killing

Consider the reported activity, negative = cell killing for these compounds:
Cn1cc(NC(=O)c2cc(NC(=O)c3cc(NC=O)cn3C)cn2C)cc1C(=O)NCCC(=N)N    -11.2% (inactive)
OC[C@H]1O[C@@H]2O[C@H]3[C@H](O)[C@@H](O)[C@@H](O[C@H]4[C@H](O)[C@@H](O)[C@@H](O[C@H]5[C@H](O)[C@@H](O)[C@@H](O[C@H]6[C@H](O)[C@@H](O)[C@@H](O[C@H]7[C@H](O)[C@@H](O)[C@@H](O[C@H]1[C@H](O)[C@H]2O)O[C@@H]7CO)O[C@@H]6CO)O[C@@H]5CO)O[C@@H]4CO)O[C@@H]3CO    -5.74% (inactive)

Request: Output measured activity, negative = cell killing for this item: CC[C@@H](C)CCCCC(=O)N[C@H](CCN)C(=O)N[C@@H](C(=O)N[C@H](CCN)C(=O)N[C@@H]1CCNC(=O)C([C@@H](C)O)NC(=O)[C@@H](CCN)NC(=O)[C@@H](CCN)NC(=O)[C@@H](CC(C)C)NC(=O)[C@@H](Cc2ccccc2)NC(=O)[C@@H](CCN)NC1=O)[C@@H](C)O (stereo partly drawn) (X3-[dDab][d(aThr)][dDab][dDab][dDab][dF][dL][dDab][dDab][ξThr(3R)]; lactam 4-C)
Response: -10.3% (inactive)

Request: Output activity, negative = cell killing of O=C(O)CN(CC(=O)O)CC1=CC2C(=CC1=O)Oc1cc(O)c(CN(CC(=O)O)CC(=O)O)cc1C21OC(=O)c2ccccc21 (centres undefined)
Response: -10.1% (inactive)

Request: Report activity, negative = cell killing for CC1=CC(=O)NS(=O)(=O)O1
Response: 0.134% (inactive)

Request: Tell me activity, negative = cell killing reported for CCOc1ccc(S(=O)(=O)O)c2cccnc12
Response: -2.86% (inactive)

Request: Identify activity, negative = cell killing associated with the compound CO[C@H]1O[C@@H]2O[C@@]3(C)CC[C@H]4[C@H](C)CC[C@@H]([C@H]1C)[C@@]24OO3
Response: 1.49% (inactive)

Request: Check the records and state activity, negative = cell killing for CN1CCC(OC(=O)C(Oc2ccc(Cl)cc2)Oc2ccc(Cl)cc2)CC1
Response: -4.4% (inactive)

Request: Determine from records and report activity, negative = cell killing for CC(C)(C)c1ccc2c(S(=O)(=O)O)c(C(C)(C)C)ccc2c1
Response: 6.66% (inactive)

Request: Give reported activity, negative = cell killing value for NC(=O)[C@@H]1C[C@]2(NC(=O)NC2=O)c2cc(F)ccc2O1
Response: 3.75% (inactive)

Request: Provide one value: measured activity, negative = cell killing of c1ccc2c(c1)OCC(CN1CCCCC1)O2 (centres undefined)
Response: -10.7% (inactive)

Request: Query activity, negative = cell killing for CC(C)CCC[C@@H](C)[C@H]1CC[C@H]2[C@@H]3CC[C@@H]4C[C@H](O)CC[C@]4(C)[C@H]3CC[C@]12C
Response: -20.8% (inactive)

Request: Please supply the value of reported activity, negative = cell killing for the item O=C(OCc1ccccc1)c1ccc(O)cc1
Response: -12.6% (inactive)

Request: Tell me its activity, negative = cell killing given CO/N=C(\C(=O)N[C@@H]1C(=O)N2C(C(=O)O)=C(CSc3nnnn3C)CS[C@H]12)c1csc(N)n1 as the entry.
Response: -9.07% (inactive)

Request: Identify measured activity, negative = cell killing corresponding to CC12CCC(C[N+](C)(CCC[N+](C)(C)C)C1)C2(C)C (centres undefined)
Response: -25.7% (inactive)

Request: Identify measured activity, negative = cell killing corresponding to O=C(O)CCCC/C=C(\c1ccccc1)c1cccnc1
Response: -10.6% (inactive)

Request: Return activity, negative = cell killing (reported value) for this compound: CC(C)[C@@H]1CC[C@@H](C)C[C@H]1OC(=O)c1ccccc1O
Response: -12.7% (inactive)

Request: Give reported activity, negative = cell killing value for CC(=O)Oc1cccc2c1C(=O)c1c(OC(C)=O)cc(C(=O)O)cc1C2=O
Response: -16.7% (inactive)

Request: Supply reported activity, negative = cell killing belonging to this compound: ClC(Cl)Cl
Response: -13.8% (inactive)

Request: Assign activity, negative = cell killing to the following record: CC1C(=O)CC2C3(C)CCC2(C(C)C(=O)O)C(=O)C13 (centres undefined)
Response: 8.38% (inactive)

Request: Please report the measured activity, negative = cell killing for CC1CC(OC(=O)C(O)c2ccccc2)CC(C)(C)C1 (centres undefined)
Response: 6.83% (inactive)

Request: Indicate its recorded activity, negative = cell killing; the compound in question is CC(/C=C/C=C(\C)C(=O)O[C@@H]1O[C@H](CO[C@@H]2O[C@H](CO)[C@@H](O)[C@H](O)[C@H]2O)[C@@H](O)[C@H](O)[C@H]1O)=C\C=C\C=C(C)\C=C\C=C(/C)C(=O)O[C@@H]1O[C@H](CO[C@@H]2O[C@H](CO)[C@@H](O)[C@H](O)[C@H]2O)[C@@H](O)[C@H](O)[C@H]1O
Response: 5.42% (inactive)

----------
Entries and their activity, negative = cell killing
Assay: Drug repurposing screens with cells derived from glioblastoma tumor samples (AID 1345199); note: % is set by controls: 0 for no effect and ±100 for the full control effect; nearly all actives have a fitted effect of over 40% in size
Settings: GBM patient neurospheres viability, ATP luminescence, 48 h; at 46.1 µM (top of the series); tumour line C
Inconclusive results are not listed. Calls of active or inactive are those of the source. The call rests on the fitted dose curve; in most records, active means well fitted inhibition curve with a large enough effect; inconclusive means small, poorly fitted or top-dose-only effect; inactive means flat fitted curve, though single readings scatter.

CCCCCCOC(=O)c1cccnc1    1.85% (inactive)
[O-][N+](=Nc1ccccc1)c1ccccc1    -6.88% (inactive)
CC(=O)OCC1=C(C(=O)O)N2C(=O)[C@@H](NC(=O)Cc3ccccc3)[C@H]2SC1    -24% (inactive)
O=C1CCC(=O)N1CO    -0.827% (inactive)

Request: Give the measured activity, negative = cell killing for Cc1cccc(C)c1NC(=O)NC1=CCCN1C
Response: 0.0506% (inactive)

Request: Look up and state reported activity, negative = cell killing for CC/C=C\C/C=C\C/C=C\C/C=C\C/C=C\C/C=C\CCC(=O)O
Response: -20.7% (inactive)

Request: Tell me its activity, negative = cell killing given FC(F)(F)COCC(F)(F)F as the entry.
Response: -24.2% (inactive)

Request: # return recorded activity, negative = cell killing for input CC(C)[C@H](N)C(=O)OCC(CO)OCn1cnc2c(=O)[nH]c(N)nc21 (stereo partly specified)
Response: -25.2% (inactive)

----------
Test system: CP250
Experiment: qHTS profiling for inhibitors of Plasmodium falciparum proliferation (AID 504749);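 note: 0% = DMSO vehicle and full inhibition = artemisinin control; nearly all actives have a fitted effect of over 60% in size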
Details: P. falciparum in erythrocytes, SYBR Green DNA, 72 h; series mostly up to 28.7 µM
Records with an inconclusive call do not appear. Activity calls are given as the source filed them. Calls come from the whole dose curve; as a rule, active = well fitted inhibition curve with a large enough effect; inconclusive = small, poorly fitted or top-dose-only effect; inactive = flat fitted curve, though single readings scatter.
Entry note: the call must match one of active, inactive

Request: State the result this test recorded for CC(C)(C)CC(C)(C)c1ccc(OCCO)cc1 .
Response: inactive

Request: Check the results log: what was the call for CCCOC(=O)c1ccccc1O ?
Response: inactive

Request: Lab log entry: O=C(O[C@H]1CN2CCC1CC2)N1CCc2ccccc2[C@@H]1c1ccccc1 — outcome as called in the assay?
Response: inactive

Request: Please let me know the test result on file for CC(=O)Nc1c(I)c(C(=O)O)c(I)c(N(C)C(C)=O)c1I .
Response: inactive

Request: Could you kindly confirm the outcome this assay logged for CCCCO ?
Response: inactive

----------
Entries and their measured activity, negative = cell killing follow.
Experiment: Drug repurposing screens with cells derived from glioblastoma tumor samples (AID 1345199); note: % is set by controls: 0 for no effect and ±100 for the full control effect; nearly all actives have a fitted effect of over 40% in size
Conditions: GBM patient neurospheres viability, ATP luminescence, 48 h; at 45.9 µM (top of the series); tumour line D
Records with an inconclusive call do not appear.
Value expressed in %; do not type the unit.

Example results:
Cc1ccc(S(=O)(=O)NCl)cc1    7.3
O=C(O)/C=C/c1ccccc1    12.4
C[S+](C)CCC(N)C(=O)O (stereo not given)    -4.21
CC1(C)[C@H]2CC[C@]1(C)[C@H](O)C2    -3.69
COC(=O)[C@H]1[C@H]2C[C@@H]3c4[nH]c5cc(OC)ccc5c4CCN3C[C@H]2C[C@H](OC)[C@@H]1OC    -1.56
C[C@@H]1C[C@H]2[C@@H]3C[C@H](F)C4=CC(=O)C=C[C@]4(C)[C@@]3(Cl)[C@@H](O)C[C@]2(C)[C@H]1C(=O)COC(=O)C(C)(C)C    -9.89

Request: Input C/C(=C\C(=O)OCCCCCCCCC(=O)O)C[C@@H]1OC[C@H](C[C@@H]2O[C@H]2[C@@H](C)[C@H](C)O)[C@@H](O)[C@H]1O , output reported activity, negative = cell killing.
Response: -9.28

Request: Given OC[C@H]1O[C@@H](O[C@H]2[C@H](O)[C@@H](O)[C@H](O)O[C@@H]2CO)[C@H](O)[C@@H](O)[C@@H]1O , respond with its activity, negative = cell killing.
Response: 6.26

Request: Quickly give me recorded activity, negative = cell killing for O=C(O)/C=C/C(=O)Nc1ccc(S(=O)(=O)Nc2nccs2)cc1
Response: -8.87

Request: Give reported activity, negative = cell killing value for Nc1ncnc2c1ncn2CCOCP(=O)(O)O
Response: -1.17
